- SYSTEM_UNDER_TEST: furin, P09958;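 further: purified furin at 1:10 enzyme:substrate in 50 mM HEPES pH 7.5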
- Sequence (P09958 whole entry): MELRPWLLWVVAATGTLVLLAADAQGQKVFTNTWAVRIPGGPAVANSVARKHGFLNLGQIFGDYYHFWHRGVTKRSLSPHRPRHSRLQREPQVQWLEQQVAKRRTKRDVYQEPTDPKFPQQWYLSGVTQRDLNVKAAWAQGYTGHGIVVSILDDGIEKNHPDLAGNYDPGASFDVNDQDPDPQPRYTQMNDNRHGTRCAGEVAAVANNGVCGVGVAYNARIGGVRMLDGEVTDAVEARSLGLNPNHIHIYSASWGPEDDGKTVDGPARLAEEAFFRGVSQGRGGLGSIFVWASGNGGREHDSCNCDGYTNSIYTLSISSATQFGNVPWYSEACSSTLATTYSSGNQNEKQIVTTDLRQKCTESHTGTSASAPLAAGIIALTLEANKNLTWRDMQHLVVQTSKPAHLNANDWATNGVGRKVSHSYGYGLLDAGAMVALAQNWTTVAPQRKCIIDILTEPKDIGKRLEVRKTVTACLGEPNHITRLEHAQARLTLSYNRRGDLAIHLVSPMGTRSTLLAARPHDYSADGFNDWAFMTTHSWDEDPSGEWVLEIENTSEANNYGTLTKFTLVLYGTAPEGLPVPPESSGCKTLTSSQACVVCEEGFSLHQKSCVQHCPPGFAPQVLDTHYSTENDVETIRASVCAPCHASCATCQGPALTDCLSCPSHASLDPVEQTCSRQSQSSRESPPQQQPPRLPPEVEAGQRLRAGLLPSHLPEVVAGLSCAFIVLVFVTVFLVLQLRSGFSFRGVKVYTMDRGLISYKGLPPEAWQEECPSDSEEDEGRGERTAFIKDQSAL
- PROTOCOL_SUMMARY: furin cleavage Z-score vs untreated control; higher = more cleavage, active = 3.5 or more, inactive = 1 or less, 8 variable residues between constant flanks
- RUN_PARAMETERS: 15 min
The other results are listed elsewhere or left out. The hit rate among all sequences tested is not known here.
Is furin cleavage Z-score at least 0.4? Then class 1. If not, class 0.

1. CAEAMTRYSAAGNASASA [HC1541]    class 1

INPUT: Please check the record CAGHQREKRGAGNASASA [FS-428] and state if its furin cleavage Z-score is at or above 0.4.
OUTPUT: class 1

INPUT: Could you do the same for CAEVLTSTWVAGNASASA [HC2185] , please?
OUTPUT: class 0

INPUT: Could you do the same for CARQKKLAEKAGNASASA [FS-2585] , please?
OUTPUT: class 0

INPUT: Could you do the same for CARAAVCTRGAGNASASA [HC751] , please?
OUTPUT: class 0

INPUT: Could you do the same for CAVVCFSMSYAGNASASA [HC86] , please?
OUTPUT: class 1

INPUT: Could you do the same for CASVSREDRGAGNASASA [FS-1491] , please?
OUTPUT: class 0
